TARGET ENTITY: T1, human PCSK9 (human, UniProt Q8NBP7 31-692)
T1 construct: also called hPCSK9; huPCSK9
ASSAY COMMENT: PCSK9:EGFA FRET 1, competition
pIC50: −log10 of the molar value.

BINDER	pIC50
PCSK9-PKE2 tandem 4472_A04 (designed binder, not shown: The inter-domain linker; In the real molecule the two parts below are one polypeptide joined by this linker) PCSK9 domain: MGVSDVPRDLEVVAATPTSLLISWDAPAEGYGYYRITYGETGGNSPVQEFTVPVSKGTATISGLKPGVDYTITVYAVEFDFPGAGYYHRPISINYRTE PKE2 domain: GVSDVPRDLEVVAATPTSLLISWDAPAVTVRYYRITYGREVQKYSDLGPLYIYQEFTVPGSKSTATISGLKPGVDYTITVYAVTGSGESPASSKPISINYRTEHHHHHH	8.29
PCSK9-PKE2 tandem 4472_E04 (designed binder, not shown: small tags and cut ends, The two parts are one polypeptide in the real molecule, joined by the undisclosed linker Q; they are given here as separate chains.) PCSK9 10Fn3: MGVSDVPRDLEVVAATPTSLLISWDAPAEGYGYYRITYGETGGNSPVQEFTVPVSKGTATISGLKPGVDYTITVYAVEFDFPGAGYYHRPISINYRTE PKE2 10Fn3: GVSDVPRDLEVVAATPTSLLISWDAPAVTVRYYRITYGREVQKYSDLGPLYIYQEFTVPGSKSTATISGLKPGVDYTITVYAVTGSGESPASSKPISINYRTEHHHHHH	8.02
PCSK9-PKE2 tandem 4472_B11 (designed binder, not shown: small tags and cut ends, The two parts are one polypeptide in the real molecule, joined by the undisclosed linker L; they are given here as separate chains.) PCSK9 10Fn3: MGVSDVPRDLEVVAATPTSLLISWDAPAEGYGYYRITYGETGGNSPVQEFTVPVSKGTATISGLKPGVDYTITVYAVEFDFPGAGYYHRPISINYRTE PKE2 10Fn3: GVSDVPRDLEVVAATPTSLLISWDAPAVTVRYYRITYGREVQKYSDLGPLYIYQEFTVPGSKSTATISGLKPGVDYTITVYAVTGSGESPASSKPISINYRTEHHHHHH	8.18
PCSK9 Adnectin 2382_D09 (designed binder) MGVSDVPRDLEVVAATPTSLLISWDAPAEGYGYYRITYGETGGNSPVQEFTVPVSKGTATISGLKPGVDYTITVYAVEFDFPGAGYYHRPISINYRT	7.71
PCSK9-PKE2 tandem 4472_G10 (designed binder, The real molecule is ONE polypeptide: PCSK9 domain, undisclosed linker H (a code letter), PKE2 domain. It is given here as two chains because the linker letters are unknown., not shown: The inter-domain linker) PCSK9 domain: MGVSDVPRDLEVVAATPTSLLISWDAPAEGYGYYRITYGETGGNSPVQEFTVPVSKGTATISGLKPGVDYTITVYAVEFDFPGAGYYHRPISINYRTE PKE2 domain: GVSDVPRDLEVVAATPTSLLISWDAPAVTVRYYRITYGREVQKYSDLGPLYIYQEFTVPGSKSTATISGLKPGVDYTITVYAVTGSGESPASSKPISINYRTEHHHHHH	8.11
PCSK9-PKE2 tandem 4472_B05 (designed binder, not shown: small tags and cut ends, The two parts are one polypeptide in the real molecule, joined by the undisclosed linker O; they are given here as separate chains.) PCSK9 10Fn3: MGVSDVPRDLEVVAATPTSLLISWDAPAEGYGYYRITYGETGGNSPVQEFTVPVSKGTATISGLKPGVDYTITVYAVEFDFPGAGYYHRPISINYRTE PKE2 10Fn3: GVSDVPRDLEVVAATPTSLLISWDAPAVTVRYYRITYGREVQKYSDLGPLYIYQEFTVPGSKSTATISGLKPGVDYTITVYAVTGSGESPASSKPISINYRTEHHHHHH	8.18
PCSK9-PKE2 tandem 4472_B10 (designed binder, The real molecule is ONE polypeptide: PCSK9 domain, undisclosed linker J, PKE2 domain. It is given here as two chains because the linker letters are unknown., not shown: The inter-domain linker) PCSK9 domain: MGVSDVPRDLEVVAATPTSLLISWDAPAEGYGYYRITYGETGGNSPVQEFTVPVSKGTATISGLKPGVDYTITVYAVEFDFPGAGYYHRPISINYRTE PKE2 domain: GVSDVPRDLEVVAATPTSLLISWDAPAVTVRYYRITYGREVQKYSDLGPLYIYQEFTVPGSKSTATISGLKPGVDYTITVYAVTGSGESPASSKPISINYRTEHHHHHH	8.01
PCSK9-PKE2 tandem 4472_C08 (designed binder, The real molecule is ONE polypeptide: PCSK9 domain, undisclosed linker 'E' (a code letter, not the residue), PKE2 domain. It is given here as two chains because the linker letters are unknown., not shown: The inter-domain linker) PCSK9 domain: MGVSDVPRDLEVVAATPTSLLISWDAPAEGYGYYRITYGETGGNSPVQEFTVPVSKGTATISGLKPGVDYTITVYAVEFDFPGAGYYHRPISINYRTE PKE2 domain: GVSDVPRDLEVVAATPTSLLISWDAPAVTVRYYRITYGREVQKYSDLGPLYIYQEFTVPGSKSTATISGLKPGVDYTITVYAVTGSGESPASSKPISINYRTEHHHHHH	8.03
PCSK9-PKE2 tandem 4472_F08 (designed binder, The real molecule is ONE polypeptide: PCSK9 domain, undisclosed linker F, PKE2 domain. It is given here as two chains because the linker letters are unknown., not shown: The inter-domain linker) PCSK9 domain: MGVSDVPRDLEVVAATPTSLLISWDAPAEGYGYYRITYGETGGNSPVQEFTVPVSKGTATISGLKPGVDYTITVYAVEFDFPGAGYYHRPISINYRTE PKE2 domain: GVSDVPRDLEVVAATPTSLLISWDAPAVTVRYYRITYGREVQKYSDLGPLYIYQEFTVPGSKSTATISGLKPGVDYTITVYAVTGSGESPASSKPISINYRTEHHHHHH	8.10
PCSK9-PKE2 tandem 4472_E09 (designed binder, In the real molecule the two parts given here are one polypeptide, joined by the undisclosed linker A. They are written as two chains only because the linker has no letters., not shown: Linker 'A' joining ...NYRTE of the PCSK9 domain to GVSDV... of the PKE2 domain) PCSK9 domain: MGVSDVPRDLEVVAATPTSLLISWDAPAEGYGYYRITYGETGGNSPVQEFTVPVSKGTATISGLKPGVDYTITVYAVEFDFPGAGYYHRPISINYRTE PKE2 domain: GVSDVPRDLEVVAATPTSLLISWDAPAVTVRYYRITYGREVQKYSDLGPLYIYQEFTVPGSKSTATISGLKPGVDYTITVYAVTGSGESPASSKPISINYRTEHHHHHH	8.24
PCSK9-PKE2 tandem 4472_H09 (designed binder, The real molecule is ONE polypeptide: PCSK9 domain, undisclosed linker C, PKE2 domain. It is given here as two chains because the linker letters are unknown., not shown: The inter-domain linker) PCSK9 domain: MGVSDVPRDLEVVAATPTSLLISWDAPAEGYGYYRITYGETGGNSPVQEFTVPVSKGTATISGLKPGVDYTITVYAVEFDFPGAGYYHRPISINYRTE PKE2 domain: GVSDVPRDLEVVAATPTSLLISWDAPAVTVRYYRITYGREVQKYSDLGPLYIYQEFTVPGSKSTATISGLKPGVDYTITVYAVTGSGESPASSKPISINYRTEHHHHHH	8.02
